The following compounds are shown together with reported IC50 values.
# Test system: RT112
# experiment: Proliferation assay, bladder cancer cell line RT112
# Assay type: cell-based, human
# reported-conditions: Homo sapiens, RT-112; 72 h culture, CyQuant proliferation assay

# count of solved cases: 3
{"compound": "[2H]C([2H])([2H])C(O)(CCCC1(C2=CCC3/C(=C/C=C4/CC(O)C[C@H](O)C4=C)CCC[C@]23C)CC1)C([2H])([2H])[2H] (stereo partly shown)", "value": "≥ 30 µM"}
{"compound": "[2H]C([2H])([2H])C(O)(CCCC1(C2=CCC3/C(=C/C=C4/CC(O)C[C@H](F)C4=C)CCC[C@]23C)CC1)C([2H])([2H])[2H] (stereo partly shown)", "value": "≥ 30 µM"}
{"compound": "[2H]C([2H])([2H])C(O)(CCCC1([C@H]2CCC3/C(=C/C=C4C[C@@H](O)C[C@H](O)C4)CCC[C@@]32C)CC1)C([2H])([2H])[2H] (stereo partly shown)", "value": "> 30 µM"}

Form: compound = [2H]C([2H])([2H])C(O)(CCCC1(C2=CCC3/C(=C/C=C4/CC(O)C[C@H](O)C4)CCC[C@]23C)CC1)C([2H])([2H])[2H] (stereo partly shown) ; IC50 = > 30 µM
